# assay.comment: Binding affinity against bovine brain nNOS (neuronal).
Non-standard residues stand in square brackets, D forms with d. Residues, ends and D or L forms follow the SMILES beside them. Arg(NO2) = N=C(NCCC[C@H](N)C(=O)O)N[N+](=O)[O-]; Orn = NCCC[C@H](N)C(=O)O
measurement.name: Ki

# compound, measurement.name, readout.value
rows = [
    ("NCCC[C@H](NC(=O)[C@@H](N)CCC/N=C(/N)N[N+](=O)[O-])C(N)=O (H-[Arg(NO2)]-[Orn]-NH2)", "Ki", "330 nM"),
]

Here is another compound to look at.
Find the measured Ki of NCCCC[C@H](NC(=O)[C@@H](N)CCC/N=C(\N)N[N+](=O)[O-])C(N)=O (H-[Arg(NO2)]-Lys-NH2) and report it.
450 nM

---

# measured.on: Nitric oxide synthase, inducible (Mus musculus, UniProt P29477)
# Sequence (P29477 whole entry): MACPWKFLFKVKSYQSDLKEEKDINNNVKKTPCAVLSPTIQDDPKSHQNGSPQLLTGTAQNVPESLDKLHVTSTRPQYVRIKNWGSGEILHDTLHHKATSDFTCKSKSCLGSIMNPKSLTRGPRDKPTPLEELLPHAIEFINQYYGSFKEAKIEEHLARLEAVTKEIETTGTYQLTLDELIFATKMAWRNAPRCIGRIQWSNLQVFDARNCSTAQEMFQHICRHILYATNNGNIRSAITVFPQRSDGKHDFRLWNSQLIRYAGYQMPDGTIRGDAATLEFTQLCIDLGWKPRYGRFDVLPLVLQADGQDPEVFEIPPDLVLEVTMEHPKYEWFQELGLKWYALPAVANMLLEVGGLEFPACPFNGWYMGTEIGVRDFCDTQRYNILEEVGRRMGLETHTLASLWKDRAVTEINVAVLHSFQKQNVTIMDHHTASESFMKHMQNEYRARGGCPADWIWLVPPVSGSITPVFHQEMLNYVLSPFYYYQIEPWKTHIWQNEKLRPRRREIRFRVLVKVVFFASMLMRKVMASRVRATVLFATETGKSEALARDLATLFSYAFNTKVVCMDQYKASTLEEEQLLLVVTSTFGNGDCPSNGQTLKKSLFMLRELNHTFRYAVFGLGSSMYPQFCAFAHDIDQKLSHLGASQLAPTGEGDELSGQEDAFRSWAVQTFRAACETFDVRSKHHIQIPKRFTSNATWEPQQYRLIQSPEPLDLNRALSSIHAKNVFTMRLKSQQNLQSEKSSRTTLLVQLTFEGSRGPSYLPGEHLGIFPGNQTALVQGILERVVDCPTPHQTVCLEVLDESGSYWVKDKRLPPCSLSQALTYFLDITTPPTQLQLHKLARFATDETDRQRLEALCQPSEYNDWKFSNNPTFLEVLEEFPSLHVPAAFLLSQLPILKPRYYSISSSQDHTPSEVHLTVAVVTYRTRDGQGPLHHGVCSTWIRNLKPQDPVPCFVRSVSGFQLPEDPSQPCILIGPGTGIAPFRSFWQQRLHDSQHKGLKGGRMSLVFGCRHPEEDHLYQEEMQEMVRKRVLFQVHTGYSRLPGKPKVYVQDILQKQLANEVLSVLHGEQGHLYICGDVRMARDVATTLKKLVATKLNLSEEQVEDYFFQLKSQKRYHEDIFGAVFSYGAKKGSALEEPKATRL
Non-standard residues stand in square brackets, D forms with d. Residues, ends and D or L forms follow the SMILES beside them. *: point of attachment. Arg(NO2) = N=C(NCCC[C@H](N)C(=O)O)N[N+](=O)[O-]; Dab = NCC[C@H](N)C(=O)O; Cbz = O=C(OCc1ccccc1)*; OtBu = CC(C)(C)O*
measurement.name: pKi
Answers are plain numbers, as −log10 of the molar value.

# compound, pKi
measured = [
    ("CN(C(=O)[C@@H](N)CCC/N=C(\\N)N[N+](=O)[O-])[C@@H](CCCCN)C(N)=O", 2.72),
    ("N=C(NCCC[C@H](N)C(=O)N[C@@H](CCN)C(=O)O)N[N+](=O)[O-] (H-[Arg(NO2)]-[Dab]-OH)", 2.92),
    ("N=C(NCCC[C@H](NC(=O)OCc1ccccc1)C(=O)N[C@@H](CCN)C(N)=O)N[N+](=O)[O-] (Cbz-[Arg(NO2)]-[Dab]-NH2)", 2.80),
    ("NCCCCN(CC(N)=O)C(=O)[C@@H](N)CCC/N=C(\\N)N[N+](=O)[O-]", 2.96),
]

For each entry beneath this line, provide reported pKi.
1. CN(C(=O)[C@@H](N)CCC/N=C(\N)N[N+](=O)[O-])[C@@H](CCCN)C(N)=O
2. N=C(NCCC[C@H](N)C(=O)NCCCCN)N[N+](=O)[O-]
3. COC(=O)[C@H](CCN)NC(=O)[C@@H](N)CCCNC(=N)N[N+](=O)[O-] (H-[Arg(NO2)]-[Dab]-OMe)
4. CC(C)(C)OC(=O)[C@H](CCN)NC(=O)[C@@H](N)CCCNC(=N)N[N+](=O)[O-] (H-[Arg(NO2)]-[Dab]-OtBu)

1. 2.89
2. 3.97
3. 4.57
4. 3.38

---

Would you kindly list pKi for each of these compounds?
# measured.on: Nitric oxide synthase, inducible (Mus musculus, UniProt P29477)
# Sequence (P29477 whole entry): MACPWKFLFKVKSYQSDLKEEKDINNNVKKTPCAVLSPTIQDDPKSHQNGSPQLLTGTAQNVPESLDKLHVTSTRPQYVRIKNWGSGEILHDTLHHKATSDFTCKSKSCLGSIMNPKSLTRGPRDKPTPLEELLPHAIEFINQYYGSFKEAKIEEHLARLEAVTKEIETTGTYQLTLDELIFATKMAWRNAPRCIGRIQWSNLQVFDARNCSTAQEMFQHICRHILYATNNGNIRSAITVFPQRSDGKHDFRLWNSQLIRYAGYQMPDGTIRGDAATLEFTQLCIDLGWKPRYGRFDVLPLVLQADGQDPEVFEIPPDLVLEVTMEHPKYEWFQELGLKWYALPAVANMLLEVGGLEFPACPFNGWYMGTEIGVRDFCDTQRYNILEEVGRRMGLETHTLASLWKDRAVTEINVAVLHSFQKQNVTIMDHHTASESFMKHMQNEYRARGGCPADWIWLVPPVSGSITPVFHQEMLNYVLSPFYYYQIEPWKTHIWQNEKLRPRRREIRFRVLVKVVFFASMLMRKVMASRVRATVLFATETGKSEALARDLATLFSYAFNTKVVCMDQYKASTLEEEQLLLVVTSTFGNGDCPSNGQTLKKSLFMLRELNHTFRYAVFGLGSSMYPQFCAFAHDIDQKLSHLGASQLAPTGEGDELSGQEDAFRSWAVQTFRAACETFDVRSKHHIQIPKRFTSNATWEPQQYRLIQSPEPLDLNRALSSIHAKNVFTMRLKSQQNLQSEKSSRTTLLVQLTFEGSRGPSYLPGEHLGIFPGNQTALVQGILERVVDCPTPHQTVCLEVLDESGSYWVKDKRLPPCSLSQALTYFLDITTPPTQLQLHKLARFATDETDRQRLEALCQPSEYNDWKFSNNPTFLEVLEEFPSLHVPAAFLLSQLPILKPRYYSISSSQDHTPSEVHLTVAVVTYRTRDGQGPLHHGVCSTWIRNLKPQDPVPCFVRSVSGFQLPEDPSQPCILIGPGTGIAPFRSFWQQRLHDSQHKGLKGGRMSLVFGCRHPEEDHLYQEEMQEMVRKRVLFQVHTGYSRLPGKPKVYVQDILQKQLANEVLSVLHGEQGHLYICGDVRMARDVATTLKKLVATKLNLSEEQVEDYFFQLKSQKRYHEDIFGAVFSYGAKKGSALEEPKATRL
Non-standard residues stand in square brackets, D forms with d. Residues, ends and D or L forms follow the SMILES beside them. Arg(NO2) = N=C(NCCC[C@H](N)C(=O)O)N[N+](=O)[O-]; NMeDab = CN[C@@H](CCN)C(=O)O; Dab = NCC[C@H](N)C(=O)O
Numbers only, as −log10 of the molar value.

Solved cases below.
# compound, pKi
data = [
    ("N=C(NCCC[C@H](N)C(=O)N(CCCN)CC(N)=O)N[N+](=O)[O-]", 3.00),
    ("CC(=O)N[C@@H](CCCNC(=N)N[N+](=O)[O-])C(=O)N[C@@H](CCN)C(N)=O (Ac-[Arg(NO2)]-[Dab]-NH2)", 2.59),
    ("CN(C(=O)[C@@H](N)CCCNC(=N)N[N+](=O)[O-])[C@@H](CCN)C(N)=O (H-[Arg(NO2)]-[NMeDab]-NH2)", 3.47),
    ("N=C(NCCC[C@H](N)C(=O)NCCCN)N[N+](=O)[O-]", 3.93),
    ("N=C(NCCC[C@H](N)C(=O)N(CCN)CC(N)=O)N[N+](=O)[O-]", 3.12),
]

Please list pKi recorded for the compound N=C(NCCC[C@H](N)C(=O)NCCN)N[N+](=O)[O-]
4.00
